Give measured IC50 for each item. Keep answers brief.
# studyTarget: human Gal-1 (hGal-1)
# Sequence (P09382 2-135 limits assumed): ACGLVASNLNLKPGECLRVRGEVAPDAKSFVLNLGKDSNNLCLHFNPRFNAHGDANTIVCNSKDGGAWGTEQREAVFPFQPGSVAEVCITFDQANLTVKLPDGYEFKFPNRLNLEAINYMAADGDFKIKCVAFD
# testDetails: Competitive binding assay: binding of biotinylated hGal-1 to microplate-adsorbed asialofetuin (ASF)
# assaySetup: Activities on hGal-1; mean values of several measurements
Could you give the number and then its unit, please?

So what's the measured IC50 for this one? CO[C@@H]1[C@@H](n2cc(-c3ccc(Cl)c(F)c3)nn2)[C@@H](O)[C@@H](CO)O[C@@H]1Cc1cc(C(C)(C)C)on1 1.88 µM

Same thing, different compound: CO[C@@H]1[C@@H](n2cc(-c3cc(F)c(F)c(F)c3)nn2)[C@@H](O)[C@@H](CO)O[C@@H]1C[C@H]1CC([C@@H]2CCNC(=O)C2)=NO1 11.8 µM

Same thing, different compound: OC[C@H]1O[C@H](CC2CC(c3ccc4cn[nH]c4c3)=NO2)[C@H](O)[C@@H](n2cc(-c3cc(F)c(F)c(F)c3)nn2)[C@H]1O (stereo partly drawn) 7.94 µM

Same thing, different compound: CCOC(=O)N1CCC(c2cc(C[C@H]3O[C@H](CO)[C@H](O)[C@H](n4cc(-c5cc(F)c(F)c(Cl)c5)nn4)[C@H]3OC)no2)CC1 0.57 µM

Same thing, different compound: CO[C@@H]1[C@@H](n2cc(-c3ccc(F)c(F)c3F)nn2)[C@@H](O)[C@@H](CO)O[C@@H]1Cc1cc(C2(C)CCCC2)on1 0.72 µM

Same thing, different compound: CO[C@@H]1[C@@H](n2cc(-c3cc(F)c(F)c(F)c3)nn2)[C@@H](O)[C@@H](CO)O[C@@H]1Cc1cc(C2(O)CCC(C)(C)CC2)on1 28.4 µM

Same thing, different compound: CO[C@@H]1[C@@H](n2cc(-c3cc(F)cc(Cl)c3)nn2)[C@@H](O)[C@@H](CO)O[C@@H]1Cc1cc(C2CCN(C(C)=O)CC2)on1 0.47 µM

Same thing, different compound: CO[C@@H]1[C@@H](n2cc(-c3ccc(F)c(F)c3F)nn2)[C@@H](O)[C@@H](CO)O[C@@H]1Cc1cc(C(C)(C)C)on1 1.25 µM

Same thing, different compound: CO[C@@H]1[C@@H](n2cc(-c3cc(F)c(F)c(F)c3)nn2)[C@@H](O)[C@@H](CO)O[C@@H]1CC1CC(C(C)(C)C)=NO1 (stereo partly drawn) 2.58 µM

Same thing, different compound: CO[C@@H]1[C@@H](n2cc(-c3cc(F)c(F)c(F)c3)nn2)[C@@H](O)[C@@H](CO)O[C@@H]1Cn1cc(-c2cccc(F)c2)nn1 13.5 µM

Same thing, different compound: CC(C)(C)OC(=O)N1CCC(c2cc(C[C@H]3O[C@H](CO)[C@H](O)[C@H](n4cc(-c5cc(F)c(F)c(F)c5)nn4)[C@H]3O)no2)CC1 0.74 µM

Same thing, different compound: CO[C@@H]1[C@@H](n2cc(-c3cccc(F)c3)nn2)[C@@H](O)[C@@H](CO)O[C@@H]1CC1CC(C2CCN(C(=O)OC(C)(C)C)CC2)=NO1 (stereo partly drawn) 0.94 µM

// data source = patent US12319672B2
